# assay_protocol: GFP drop in mixed WT/humanized-ribosome E. coli culture – GFP/RFP fluorescence, OD600, single point, bacterial rRNA inhibitor project, primary screen (AID 720706)
# condition_info: E. coli WT GFP vs humanized-ribosome RFP mutants, 24 h; measured here: RFP humanized mutant strains, DMSO median 0, no signal -100, concentration not given here
Hit rate of the full screen: of about 350,000 compounds, about 5,500 (1.6%) were called active. Shown is part of a subset that was picked to be rich in actives.
Would you kindly list RFP signal change for each of these compounds?
# number only, unit % dropped from output

I'd like to know its RFP signal change. The compound in question is COc1ccc(-c2nc(CCNC(=O)c3ccc(Br)o3)cs2)cc1
-22.8

Query C[C@H](CO)N1C[C@H](C)[C@H](CN(C)Cc2ccc(C(=O)Nc3ccccc3N)cc2)Oc2ccc(NC(=O)Nc3ccccc3)cc2CC1=O next
1.58

Request: COc1ccc(/C=C2\SC(=S)N(CCC(=O)N3CCOCC3)C2=O)cc1OC
0.46

Now consider O=C(c1ccncc1)N1CC(=O)N2[C@H](C1)[C@@H](c1ccc(C#CCC3CCCC3)cc1)[C@@H]2CO and answer again.
7.12

What do we get for COc1cc(OC)c(OC)cc1CN1CCN(C(=O)c2cccc3ccccc23)CC1 ?
0.512

Also check O=S(=O)(NC1CC2CCC1C2)c1ccc(Cl)cc1 (configuration not stated)
-1.19

Likewise for COc1ccc(S(=O)(=O)N[C@H]2CC[C@H](CCn3cc(C(C)C)nn3)O[C@@H]2CO)cc1 ?
1.37

Next compound up: Nc1ccccc1Sc1cc(Cl)nnc1Cl
-2.25

Would you kindly repeat that for CCc1cccc(C)c1N1C(=O)CN(Cc2ccccc2)C1=S ?
-8.39

# iterate: CCOc1ccccc1NC(=O)C1CCN(S(=O)(=O)c2c(C)nn(C)c2C)CC1
-2.77

Record: O=C(NNC(=O)C1C2CCC(C2)C1C(=O)O)c1ccc(Cl)cc1 (configuration not stated)
-0.52

Likewise for Cc1cc(C)c2c(-c3ccc(F)cc3)c(C#N)c(=O)n(C)c2n1 ?
-1.52

Next up: Cc1cccc(CNS(=O)(=O)c2ccc(-c3cnc(C4CC4)o3)cc2)c1
-6.22

Can you check Cc1ccccc1NC(=O)CCOc1ccccc1 next?
2.04

Likewise for CO[C@@H](CN(C)C(=O)c1cnccn1)[C@H](C)CN([C@H](C)CO)S(=O)(=O)c1ccc(C)cc1 ?
-1.48

Also, CCCNC(=O)N(C)C[C@@H]1Oc2ncc(-c3ccccc3F)cc2C(=O)N([C@@H](C)CO)C[C@H]1C please.
-3.35

Continue with O=C1/C(=C/c2ccc(F)cc2)SC(=S)N1CCCC(=O)N1CCCCC1CCO (configuration not stated)
-4.34

Try the compound Cc1nn(C)c(C)c1S(=O)(=O)N1CCC(CO)(Cc2ccc(Cl)cc2)CC1
0.06

And Cc1ccccc1S(=O)(=O)N1CC(=O)N2[C@H](CO)[C@H](c3ccc(C#CCN(C)C)cc3)[C@H]2C1 ?
0.298

Now consider COc1ccc(CNS(=O)(=O)c2ccc(-c3cnc(C4CC4)o3)cc2)cc1 .
-0.493

Same again, this time with O=S(=O)(NCCc1csc(-c2ccccc2)n1)c1cccnc1
1.22

And the next one, CC(C)n1c(=S)[nH]c2cc(C(F)(F)F)ccc21 ?
-3.06

Now consider Cc1cccc(NS(=O)(=O)c2ccc(-c3cnc(C4CC4)o3)cc2)c1 and answer again.
16.8

Same question, C[C@@H]1CN([C@H](C)CO)C(=O)c2cccc(NC(=O)Nc3ccc4c(c3)OCO4)c2O[C@H]1CN(C)S(=O)(=O)c1ccccc1 this time
-1.37

Repeat with COCCn1c(=O)[nH]c(=O)c2cc(C(=O)c3cc(OC)ccc3O)cnc21
12.8

Input CCCn1c(=S)[nH]c2ccc(C(F)(F)F)cc21
-4.67

Thanks! And COc1ccc(O)c(C(=O)c2cnc3c(c2)c(-c2ccc(F)cc2)c(C#N)c(=O)n3C)c1 ?
1.18

# repeat for COc1ccc(CC2(CO)CCN(Cc3cnn(C)c3)CC2)cc1
1.82

Another compound: NC(=O)c1ccc(CN2CCC(Cc3ccccc3)CC2)cc1
1.24

What about O=C(NCC[C@H]1CC[C@@H](NC(=O)c2ccncc2)[C@@H](CO)O1)Nc1ccc(Cl)cc1 ?
-0.789

Repeat for the following compound: Cc1nn(C)cc1C(=O)Nc1ccccc1Br
-7.21

Another compound to check: CNC[C@H]1OCCCC[C@H](C)Oc2ccc(NS(=O)(=O)c3ccc(Cl)cc3)cc2C(=O)N([C@@H](C)CO)C[C@@H]1C
0.215

Moving on to COc1ccc(C#Cc2ccc([C@@H]3[C@H](CO)N4C(=O)CN(C(C)=O)C[C@@H]34)cc2)cc1
-2.12

Repeat for the following compound: CCc1ccc(NC(=O)N2CCc3ccccc3C2)cc1
-3.21

Also, CN1c2ccc(Br)cc2[C@@H]2[C@@H](CCN2C(=O)C2CCCC2)[C@H]1CO please.
0.745

Now consider Brc1ccccc1CN1CCC(Cc2ccccc2)CC1 .
-3.42

Next: Cn1cc(C2OC(=O)c3ccccc32)c2ccccc21 (configuration not stated)
-4.84

Now give it for Cc1ccc(F)c(NC(=O)CCOc2ccccc2C)c1 too.
1.17

Same for COc1ccc(/C=C2\CCc3ccccc3C2=O)c(OC)c1OC
-4.31

Check O=C(Nc1cccc([N+](=O)[O-])c1)N1CCc2ccccc2C1 too.
-7.36

Query O=[N+]([O-])c1cc(C(F)(F)F)ccc1NCCc1ccncc1 next
-1.21

Let us now turn to Cc1ccc(CNC(=O)Cc2cn(C)c3ccccc23)cc1
3.4
